// data source = patent US4960755A

- method.notes: Solubility in phosphate-buffered saline solutions, PBS(-) and PBS(+)
- Assay type: physicochemical
- measurement.setup: pbs(-); read-out: Solubility
- Method: The solubility of the various antibiotics was determined in phosphate-buffered saline (PBS) solutions and the data obtained are shown below. PBS(-) refers to a solution containing for each liter 0.2 g KCl, 0.2 g KH2 PO4, 8 g NaCl, and 1.15 g Na2 HPO4; PBS(+) contains additionally 100 mg MgCl2.6H2 O and 100 mg CaCl2.
I'd be grateful if you could share measured solubility for these entries.
Number in µg/mL, nothing else.

Ask: Item CCCN(C)[C@@H]1[C@H](O[C@@H]2OC[C@@H](O)[C@H](O)[C@H]2O)[C@@H](O)[C@H](O[C@H]2c3cc(C)c(C(=O)N[C@H](C)C(=O)O)c(O)c3-c3c(cc4c(c3O)C(=O)c3cc(OC)cc(O)c3C4=O)[C@@H]2O)O[C@@H]1C has what recorded solubility?
Reply: 73

Ask: Requested field: solubility. Item: COc1cc(O)c2c(c1)C(=O)c1c(cc3c(c1O)-c1c(cc(C)c(C(=O)N[C@H](C)C(=O)O)c1O)[C@H](O[C@@H]1O[C@H](C)[C@H](N(C)C)[C@H](O[C@@H]4OC[C@@H](O)[C@H](O)[C@H]4O)[C@H]1O)[C@H]3O)C2=O
Reply: 3100

Ask: Item under review: COc1cc(O)c2c(c1)C(=O)c1c(cc3c(c1O)-c1c(cc(C)c(C(=O)NCC(=O)O)c1O)[C@H](O[C@@H]1O[C@H](C)[C@H](N(C)C)[C@H](O[C@@H]4OC[C@@H](O)[C@H](O)[C@H]4O)[C@H]1O)[C@H]3O)C2=O . Reported solubility?
Reply: 1800
